Protocol: Selectivity index, ratio of EC50 for toxicity in human A549 cells to MIC50 for antifungal activity against ITC and FLC-resistant Candida albicans ATCC MYA-1003
Type: cell-based
Cond: read-out: Selectivity Index
Metric name: selectivity ratio
Just the number, please, no unit after it.

CC[C@@H]([C@H](C)O)n1ncn(-c2ccc(N3CCN(c4ccc(OC[C@@H]5CO[C@@](Cn6cncn6)(c6ccc(F)cc6F)C5)cc4)CC3)cc2)c1=O [POSACONAZOLE] :: 2
CCCCCC(O)(Cn1cncn1)c1ccc(F)cc1 (centres undefined) :: 1
CCCCCC(O)(Cn1cncn1)c1ccccc1F (centres undefined) :: 9

Next compound, please.
For the compound CCCCC(O)(Cn1cncn1)c1ccc(Cl)cc1Cl (centres undefined) [HEXACONAZOLE] , report selectivity ratio. 32

====

Protocol: Selectivity index, ratio of […] for toxicity in human BEAS2B cells to MIC50 for antifungal activity against Aspergillus nidulans ATCC 38163
Type: cell-based
Cond: BEAS-2B cells, read-out: Selectivity Index
Metric name: selectivity ratio
Just the number, please, no unit after it.

See these solved cases before continuing.
CCCCCC(O)(Cn1cncn1)c1ccc(F)cc1F (stereo not drawn) :: 32
CCCCCCCCC(O)(Cn1cncn1)c1ccc(F)cc1F (stereo not drawn) :: 27

Next compound, please.
For the compound CCCCCC(O)(Cn1cncn1)c1ccccc1F (stereo not drawn) , report selectivity ratio. 65

====

# EC50 at 24 h annotations
Protocol: Toxicity in human A549 cells assessed as reduction in cell viability incubated for 24 hrs by resazurin dye based assay

See these solved cases before continuing.
CCCCCCC(O)(Cn1cncn1)c1ccc(F)cc1F (configuration not stated) :: 35 µg/mL
CCCCCCC(O)(Cn1cncn1)c1ccccc1F (configuration not stated) :: > 31.3 µg/mL
CCCCCCC(O)(Cn1cncn1)c1ccc(Cl)cc1Cl (configuration not stated) :: 20 µg/mL

For the molecule CCCCCC(O)(Cn1cncn1)c1ccc(Cl)cc1 (configuration not stated) , report EC50 at 24 h. > 31.3 µg/mL

For the molecule CCCCCCC(O)(Cn1cncn1)c1ccc(F)cc1 (configuration not stated) , report EC50 at 24 h. > 31.3 µg/mL

For the molecule CCCCC(O)(Cn1cncn1)c1ccc(F)cc1F (configuration not stated) , report EC50 at 24 h. > 31.3 µg/mL

For the molecule CCCCCC(O)(Cn1cncn1)c1ccccc1Cl (configuration not stated) , report EC50 at 24 h. > 31.3 µg/mL

====

Protocol: Selectivity index, ratio of EC50 for toxicity in human BEAS2B cells to MIC50 for antifungal activity against ITC and FLC-susceptible Candida albicans ATCC MYA-2310
Assay type: cell-based
Cond: BEAS-2B cells, read-out: Selectivity Index
Metric name: selectivity ratio
Just the number, please, no unit after it.

See these solved cases before continuing.
CCCCCCC(O)(Cn1cncn1)c1ccccc1Cl (configuration not stated) :: 16
CCCCCCC(O)(Cn1cncn1)c1ccc(Cl)cc1 (configuration not stated) :: 1
CCCCCCC(O)(Cn1cncn1)c1ccccc1F (configuration not stated) :: 32

For the compound CCCCC(O)(Cn1cncn1)c1ccc(F)cc1F (configuration not stated) , report selectivity ratio. 1

For the compound CCCCCC(O)(Cn1cncn1)c1ccccc1F (configuration not stated) , report selectivity ratio. 32

For the compound CCCCC(O)(Cn1cncn1)c1ccc(Cl)cc1Cl (configuration not stated) , report selectivity ratio. 16

For the compound CCCCCCC(O)(Cn1cncn1)c1ccc(F)cc1 (configuration not stated) , report selectivity ratio. 4

For the compound CCCC(O)(Cn1cncn1)c1ccc(Cl)cc1Cl (configuration not stated) , report selectivity ratio. 8
